Just for reference, patent US10294202B2 is where these values come from.

Answer each item with its documented Corn plant response rating.
Test system: corn
Measurement Protocol: Test C pre-/postemergence herbicide test
Format: in vivo, Zea mays
Experimental Context: Preemergence, 62 g ai/ha; scale 0 to 100 (0 no effect, 100 complete control)
From the text: […]
Returns: the value as a bare number; no unit string appended.

Query string: Using the record for CN1CC(c2cccc(C(F)(F)F)c2)C(C(=O)Nc2ccccc2F)C1=O (centres unmarked) [Compound 277] , report its Corn plant response rating.
Result string: 85

Query string: // returns reported Corn plant response rating for input O=C1NCC(c2cccc(OC(F)F)c2)C1C(=O)Nc1ccccc1F (centres unmarked) [Compound 223]
Result string: 0

Query string: Using the record for O=C1NCC(c2ccc(C(F)(F)F)nc2)C1C(=O)Nc1ccccc1F (racemic) [Compound 262] , report its Corn plant response rating.
Result string: 0

Query string: Quick one: Corn plant response rating for O=C1NCC(c2cccc(C(F)(F)F)c2)C1C(=O)Nc1ccccc1Cl (centres unmarked) [Compound 312] ?
Result string: 60

Query string: I'd like to know its Corn plant response rating. The molecule in question is CN1CC(c2ccc(F)c(F)c2)C(C(=O)Nc2ccccc2F)C1=O (centres unmarked) [Compound 302]
Result string: 0

Query string: # input molecule: O=C1NCC(c2cccc(C(F)(F)F)c2)C1C(=O)Nc1ccc(F)cc1F (racemic) [Compound 207] ; wanted: its Corn plant response rating
Result string: 0

Query string: Consider the molecule shown here: O=C1NCC(c2cccc(C(F)(F)F)c2)C1C(=O)Nc1ccccc1Cl (racemic) [Compound 189] What is its recorded Corn plant response rating?
Result string: 0

Query string: If you can, please state the reported Corn plant response rating value of O=C1NCC(c2cccc(C(F)(F)F)c2)C1C(=O)Nc1ccc(F)c(F)c1F (centres unmarked) [Compound 315] .
Result string: 80

----------
Tested on: barnyardgrass
Measurement Protocol: Test A pre-/postemergence herbicide test
Type: in vivo, Echinochloa crus-galli
Experimental Context: Postemergence, 125 g ai/ha; 0 to 100 scale, 0 no effect, 100 complete control
Give measured Plant response rating, Barnyardgrass for each item. Keep answers brief.

Query string: Need Plant response rating, Barnyardgrass of CC1NC(=O)C(C(=O)Nc2ccccc2C(F)(F)F)C1c1ccc(F)c(F)c1 (mixture of isomers) [Compound 10] , thanks.
Result string: 0

Query string: Fill in: Plant response rating, Barnyardgrass of Cc1ccc(C2CNC(=O)C2C(=O)Nc2cccc(F)c2F)cc1 (racemic) [Compound 151] is ___
Result string: 80

Query string: Given O=C1NCC(c2ccccc2)C1C(=O)Nc1cccc(F)c1F (stereo not drawn) [Compound 65] , state its recorded Plant response rating, Barnyardgrass.
Result string: 20

Query string: I am curious: what Plant response rating, Barnyardgrass value has been reported for CC1NC(=O)C(C(=O)Nc2ccccc2F)C1c1ccc(F)c(F)c1 (mixture of isomers) [Compound 7] ?
Result string: 20

Query string: Entry under review: O=C1NCC(c2cccc(C(F)(F)F)c2)C1C(=O)Nc1ccccc1F (racemic) [Compound 3] . Reported Plant response rating, Barnyardgrass?
Result string: 70

Query string: Would you mind telling me what Plant response rating, Barnyardgrass value was observed for N#Cc1ccccc1NC(=O)C1C(=O)NCC1c1ccccc1 (racemic) [Compound 86] ?
Result string: 0

----------
System: rice
Measurement Protocol: Test B flooded paddy test
Format: in vivo, Oryza sativa
Experimental Context: 500 g ai/ha, Flood; scale of 0 to 100 where 0 is no effect and 100 is complete control
For each record, write down the corresponding Plant response rating, Rice.
Answer with the value's number alone.

Query string: Item O=C1NCC(c2ccc(Br)c(Br)c2)C1C(=O)Nc1cccc(F)c1F (centres unmarked) with rice - Plant response rating, Rice?
Result string: 0

Query string: Missing value: Plant response rating, Rice, rice, entry CN1CC(c2ccc(C(F)(F)F)cc2)C(C(=O)Nc2ccccc2F)C1=O (centres unmarked) . Fill in?
Result string: 35

Query string: Recorded Plant response rating, Rice for O=C1NCC(c2cccc(OC(F)F)c2)C1C(=O)Nc1ccccc1F (centres unmarked) with rice, please?
Result string: 0

Query string: Missing value: Plant response rating, Rice, rice, entry Cc1ccccc1NC(=O)C1C(=O)NCC1c1cccc(OC(F)F)c1 (centres unmarked) . Fill in?
Result string: 0

Query string: // map CCc1cccc(C2CNC(=O)C2C(=O)Nc2cccc(F)c2F)c1 (racemic) to recorded Plant response rating, Rice (system: rice)
Result string: 15

Query string: Find the measured Plant response rating, Rice: item O=C1NCC(c2cccc(Oc3ccccc3)c2)C1C(=O)Nc1ccc(F)c(F)c1F (centres unmarked) , target or system rice.
Result string: 0

Query string: Quick check: Plant response rating, Rice on rice, item O=C1NCC(c2cccc(OC(F)(F)C(F)F)c2)C1C(=O)Nc1ccc(F)c(F)c1F (racemic) ?
Result string: 0

Query string: # value lookup — system rice, readout Plant response rating, Rice, item Cc1ccc(C2CNC(=O)C2C(=O)Nc2ccccc2Cl)cc1 (racemic)
Result string: 15

----------
System: blackgrass
Measurement Protocol: Test C pre-/postemergence herbicide test
Assay type: in vivo, Alopecurus myosuroides
Experimental Context: Preemergence, 250 g ai/ha
Text: […]
// boundary case: Plant response rating (scale of 0 to 100), Blackgrass equal to 70 maps to Condition not met; strictly smaller maps to Condition met

Query string: Criterion: Plant response rating (scale of 0 to 100), Blackgrass strictly below 70. Is it met by O=C1NCC(c2ccc(C(F)(F)F)nc2)C1C(=O)Nc1ccccc1F (racemic) ?
Result string: Condition met

Query string: Hello, I'm reviewing records and need to know if Plant response rating (scale of 0 to 100), Blackgrass of O=C1NCC(c2cccc(Br)c2)C1C(=O)Nc1ccccc1F (centres unmarked) is below 70. Could you check?
Result string: Condition met

Query string: Check if Plant response rating (scale of 0 to 100), Blackgrass falls below 70 for O=C1NCC(c2cccc(Cl)c2)C1C(=O)Nc1cccc(F)c1F (racemic) .
Result string: Condition not met

Query string: Hello, is Plant response rating (scale of 0 to 100), Blackgrass of the following compound strictly smaller than 70? O=C1NCC(c2cccc(C(F)(F)F)c2)C1C(=O)Nc1ccc(F)c(F)c1F (centres unmarked)
Result string: Condition not met

Query string: Dear colleague, could you confirm whether Plant response rating (scale of 0 to 100), Blackgrass of O=C1NCC(c2ccc(C(F)(F)F)cc2)C1C(=O)Nc1ccc(F)c(F)c1F (centres unmarked) falls below 70? Thanks.
Result string: Condition not met

Query string: Plant response rating (scale of 0 to 100), Blackgrass strictly < 70 for this compound? O=C1NCC(c2ccc(F)cc2)C1C(=O)Nc1cccc(F)c1F (racemic)
Result string: Condition not met

Query string: Record O=C1NCC(c2ccc(F)c(C(F)(F)F)c2)C1C(=O)Nc1ccccc1C(F)(F)F (racemic) : is its Plant response rating (scale of 0 to 100), Blackgrass strictly below 70?
Result string: Condition not met

Query string: Is it true that Plant response rating (scale of 0 to 100), Blackgrass reported for CN1CC(c2ccc(F)c(F)c2)C(C(=O)Nc2ccccc2F)C1=O (centres unmarked) is less than 70?
Result string: Condition not met

Query string: Lab note: confirm whether the reported Plant response rating (scale of 0 to 100), Blackgrass for this compound is below 70, equality not counting. compound: O=C1NCC(c2ccc(C(F)(F)F)cc2)C1C(=O)Nc1ccccc1Cl (centres unmarked)
Result string: Condition not met

Query string: Just wondering, is Plant response rating (scale of 0 to 100), Blackgrass of O=C1NCC(c2cc(F)cc(F)c2)C1C(=O)Nc1ccc(F)cc1F (racemic) below 70?
Result string: Condition met

----------
Tested on: crabgrass, large
Measurement Protocol: Test C pre-/postemergence herbicide test
Assay type: in vivo, Digitaria sanguinalis
Experimental Context: Postemergence, 31 g ai/ha; scale 0 to 100 (0 no effect, 100 complete control)
Measured Metric: Plant response rating, Crabgrass, Large
I'd appreciate a reply containing only the number, no unit.

Query string: For the compound Cc1cccc(NC(=O)C2C(=O)NCC2c2cccc(C(F)(F)F)c2)c1 (stereo not shown) , what Plant response rating, Crabgrass, Large is on record?
Result string: 0

Query string: Requested field: Plant response rating, Crabgrass, Large. Item: O=C1NCC(c2cc(F)cc(F)c2)C1C(=O)Nc1cccc(F)c1F (racemic)
Result string: 25

Query string: Reported Plant response rating, Crabgrass, Large for O=C1NCC(c2cccc(OC(F)F)c2)C1C(=O)Nc1ccccc1F (stereo not shown) : what is it?
Result string: 0

Query string: What value of Plant response rating, Crabgrass, Large has been reported for the following compound? O=C1NCC(c2cc(F)cc(F)c2)C1C(=O)Nc1ccc(F)cc1F (racemic)
Result string: 0

Query string: So what's the measured Plant response rating, Crabgrass, Large for this one? O=C1NCC(c2cccc(C(F)(F)F)c2)C1C(=O)Nc1cccc(Cl)c1F (stereo not shown)
Result string: 0

Query string: Fill in the blank: the reported Plant response rating, Crabgrass, Large of O=C1NCC(c2cccc(C(F)(F)F)c2)C1C(=O)Nc1ccc(F)cc1F (racemic) is ____.
Result string: 10

Query string: Given the entry O=C1NCC(c2cccc(OC(F)F)c2)C1C(=O)Nc1ccc(F)c(F)c1F (stereo not shown) , report its measured Plant response rating, Crabgrass, Large.
Result string: 55
